target: ASK-1 enzyme (Homo sapiens, UniProt Q99683); construct: purchased Signal Chem M13-11G-10; assay: Inhibitory ability against ASK-1 enzyme activity (ADP-Glo Kinase Assay); assay type: biochemical; conditions: 250 μM ATP, MBP substrate, 30° C. for 40 minutes
Sequence (Q99683 649-946 limits assumed): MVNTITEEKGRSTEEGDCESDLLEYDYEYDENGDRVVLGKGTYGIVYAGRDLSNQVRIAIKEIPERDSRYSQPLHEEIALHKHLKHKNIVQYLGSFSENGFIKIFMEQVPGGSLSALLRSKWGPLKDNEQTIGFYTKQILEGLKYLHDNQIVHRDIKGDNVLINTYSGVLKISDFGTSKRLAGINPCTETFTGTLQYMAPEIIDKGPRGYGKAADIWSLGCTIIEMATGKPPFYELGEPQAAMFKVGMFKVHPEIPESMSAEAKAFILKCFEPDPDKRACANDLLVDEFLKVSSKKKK
measured_quantity: IC50

The following compounds have reported results that may help.
- CC(C)n1cnnc1-c1cccc(N2COc3ccc(-c4cnn(C5CC5)c4)cc3C2=O)n1 [Example 8]: 13.8 nM
- CC(C)n1cnnc1-c1cccc(N2COc3ccc(Nc4nccc(C(F)F)n4)cc3C2=O)n1 [Example 10]: 7.2 nM
- CC(C)n1cnnc1-c1cccc(N2COc3ccc(-c4cnn(CC5CC5)c4)cc3C2=O)n1 [Example 1]: 9.3 nM

Please find the next compound below.
Ask: What measured IC50 goes with CC(C)n1cnnc1-c1cccc(N2COc3ccc(-c4ccc(Cn5cccn5)cc4)cc3C2=O)n1 [Example 13] ?
Reply: 46.4 nM

Ref: patent US12565491B2
